- PROTOCOL DETAILS: folding stability dG unfold from chymotrypsin proteolysis; higher = more stable
folding stability dG unfold vs 2 kcal/mol: at or above is Condition met, below is Condition not met.

1. SAGGSAGGSPNTVPIPIRVEWYDPKDGEPKDEHPFNINFKTEEEAEDIIDNIAPDHPGMKIEISAGGSAGGS [r12_1043_TrROS] :: Condition not met
2. SAGGSAGGSAGKIEIKVVKKTPNYVYYEIRFEETKKTIIVKAKSKEDAEEAAKKLLKELKSAGGSAGGSAGG [r11_848_TrROS_Hall] :: Condition met
3. SALTLEELEKRYPELPSELLEKIKEEAEKVPKDRTLTFLLTAPDGRRVRITVTKPDTVTVTVLPPGVPEASA [r9_1024_JUSTAS] :: Condition met
4. SMKMSPEEKLKELAKELAEKLEEETGKKVKVRVTVEYNGKTFEIEIEEGETIEDIRNKFPGLKIKVEIEPSA [r9_513_TrROS_Hall] :: Condition not met
5. SLGPNEDAILEEEAIIDIDPEAFRKAFGFDVPEDTKVLIITRRRVPANGDIETDPEIYIYDPKTKKFYPISA [r9_349_TrMRF] :: Condition met
6. SAGGSAGGSAGGSMPENLVTITTETTVVKSPLANPVNESPVWEVEVISSPVTVVPPSLLSAGGSAGGSAGGS [r4_417_JUSTAS] :: Condition not met

====

- PROTOCOL DETAILS: folding stability dG unfold from trypsin proteolysis; higher = more stable
folding stability dG unfold vs 2 kcal/mol: at or above is criterion met, below is criterion not met.

1) SAGGSAGGSASKYVKVTVRLTPPDGTTRTVEITDPNKTVEEIIASLPSDEPVEVTEVEELPPSAGGSAGGSA [r18_32_JUSTAS] :: criterion not met
2) SAGGSAGGSAGGKKKLKIKIEIKIEEKIKKTPNGKLEKEKKIEITKIIEIEPDSPLLKKLSAGGSAGGSAGG [r7_889_TrROS_Hall] :: criterion met
3) SAGGSAMLVKVTITLKKGGKEYTLEQFVEVNPPDLKIEIPPEIKEKGWEIVDIEVEEITPEEAERKSAGGSA [r15_853_JUSTAS] :: criterion not met
4) SAGGSALTLNDKSLIPKPFPKKKAIVDVAVPLPPNLTLEEALEVAEAIANNLLKAGKIDEATVAIYSAGGSA [r15_450_TrMRF] :: criterion not met
5) SAGGKKPKVKKVKVKLTLVDPETGEEVEVEAELYELPDGYVVLTVRNKKTGKTYRFVFKDGKLYLEPVSAGG [r13_117_TrROS_Hall] :: criterion met
6) SAATLPPGTKVLTLTVTVRVPPGVSVEDLAAALAAELRRRLGPGAKITVTVTYDPETDTLTVTVTVVLPPSA [r9_657_TrROS_Hall] :: criterion met
7) SAGGSAMKVYKIKLEFENEETGKRVEIEAEVVEVDGELYLVMKAKVVDEETGEEKEIEIVIKLPKESAGGSA [r15_960_TrROS_Hall] :: criterion met

====

- PROTOCOL DETAILS: folding stability dG unfold (combined trypsin and chymotrypsin); higher = more stable
The following ranges of folding stability dG unfold define the classes used here: low-valued = under 1 kcal/mol, mid-valued = from 1 kcal/mol up to 2 kcal/mol, high-valued = 2 kcal/mol and over

1) SAGGDPGKPTSVTLTLTVPKDKKTVKLEVTFNPETGEAVITFPGSSKTVTLPFGSLPDVLDAAKKLLYSAGG [r13_439_TrMRF] :: high-valued
2) SAGGSAGGSAGGIEKFLEKHPELKIKKEIKIKIPYKTKDGKEFEVEYKIFYLTSEDEEDSAGGSAGGSAGGS [r10_0_TrMRF] :: high-valued
3) SAGGSAGGSAGEAAIEAAIAANSPDKDATVALPGGETVRLKFTRDPKVPTLLSLDVEREPPRSAGGSAGGSA [r18_202_JUSTAS] :: low-valued
4) SETVTIEVEIEVKLPDGSTYRVRLTVEFDKETGKITLKMTVEYNGKTYEVELSEEEIKALLDELLKKLGLSA [r9_1136_TrROS_Hall] :: high-valued
5) SAGGSASLFIPVPPTDTSPVTVEITIGNSKYRATLTVDPNNPNLMTVTLTDPNGGATTTETVPLLDSAGGSA [r15_328_JUSTAS] :: mid-valued
6) SAGGSAGGSAGMLARITLSTPEKPVEYIVPESEVEEYIKKLNLPEDTEVTVTPVDPAALLSAGGSAGGSAGG [r17_395_JUSTAS] :: mid-valued
7) SAGGMIVLEFTDPSELEKLEEKVEEIKEELIKEGIKPPNVEIKVTRTTRKLPNGTERYTAPVSIKLPSAGGS [r16_591_JUSTAS] :: low-valued
8) SAGGSAGGSAGAFVGYRDEGGRYWLRTPEGELELDSEEDALEWADFLRANGIPLLSEPRPSAGGSAGGSAGG [r17_35_TrMRF] :: mid-valued
9) SAGGSAGGSAGGKEYKLVKVKVKVEITLPKGSELLKKLGLSEEDVKFEFELEVVVLVKPSAGGSAGGSAGGS [r10_82_TrROS_Hall] :: high-valued
10) SAGGSAGGSAGIPADAPEAVVRLDLYPDGPDTVVTVEAPFKDIPLDDIPENAVVRLEASPLGSAGGSAGGSA [r18_21_TrMRF] :: low-valued
11) SAGGSPPDKWVTLPFTMRYPDNGLEVEVNIVINPDDGKIQVEMEVYDNGKPKQEVPATIPADEIKLSAGGSA [r2_188_TrROS] :: low-valued
12) SAGGNLDKEFVRDIIENFGFTRIEVEEHPNRKVVTFRFENMDVVIRPDGQIEIENPGGEPVFQIEVPSAGGS [r8_147_TrROS] :: mid-valued
13) SSPANITTTTTSSPLNLETFDPKTGKKKRINYTLTTETVTFPGGEVVTTTVLKDASTGKVTTLSTTVTPTSA [r9_402_JUSTAS] :: mid-valued
14) SAGGSAGGGMSMEELKTVDYPLVVTVPLPDGSTVTVSAKVPAEDLDKAIPEVEERAKALAEEGASAGGSAGG [r6_903_JUSTAS] :: low-valued
15) SAGGSAGGSAGGDLNDAEIIDIYRDPDSDYYYAVFRGPDGGTYLVRFDPNSDRVEVIPLSAGGSAGGSAGGS [r10_674_TrMRF] :: high-valued
16) SKKIKLSEEMKEAIKEAVKKAKPGEKVEITIKLKDGSIIKIEIYPDGTIKISVFDKNGKKIKEFEIKIKPSA [r9_132_TrROS_Hall] :: mid-valued
17) SAGGSISVEELKKLPPDSTLTYTEGDKLYEIKVYKNPEGALSIEITEIDPNTGSPVKTEIVNLEELLSAGGS [r16_763_JUSTAS] :: high-valued
18) SAGGSAGGSAGGLPEDIELEVEPLEITLEDGSRVRILIARAPDPEIAAIDIEVFPPDDPKSAGGSAGGSAGG [r11_338_TrMRF] :: low-valued
19) SAGGSAGGSASMKIAKEVRTDPNSDVTYRVEVYRLPGPNVLLVETTYPEGVELSLVEVDPPSAGGSAGGSAG [r3_123_JUSTAS] :: low-valued
20) SAGGSAGGSAMPLEKVIKNLTSSGSVESLKEKLAKEYGVEKVEVTKDPNSDTYSAKVFLKKPSAGGSAGGSA [r18_275_JUSTAS] :: low-valued
21) SAGGSAGGSAMKTLVIEGLSLEEIEELAKEIPGKTVRIVFKDGSVITIYPDGKIEIEPLPESAGGSAGGSAG [r3_269_TrROS_Hall] :: high-valued
22) KIEIVEIKKENGKITIKVKNPIPNAKLIIYLFNPKGEIVSAKTHPGPEVELEIEVPENESFSVLVKLFPPKS [r1_382_TrMRF] :: high-valued
23) SAGGSAGGSAGMKLPEGWEIVAVYRDKETNKLYLIVRDTKTKKLLIVDLDTKKIISAEELSAGGSAGGSAGG [r11_268_TrROS_Hall] :: high-valued
24) SAGGSAGGSAGPEIRVDDLEDGVVRITTVNVDPSTGAPVATTTTTLPRESLSPEVVALLSSAGGSAGGSAGG [r11_376_JUSTAS] :: low-valued
25) SAGGKKPKVKKVKVKLTLVDPETGEEVEVEAELYELPDGYVVLTVRNKKTGKTYRFVFKDGKLYLEPVSAGG [r13_117_TrROS_Hall] :: high-valued
26) SAGGSAGGSAGGSSKNRPLVIIDYPFYTSNPDYIVRATFINYLDENNNITEVKVEVLKASAGGSAGGSAGGS [r4_75_TrMRF] :: high-valued
27) SAGGSAGGSAGPPNKPVYVRVRIQMPNGKKKTFWFKDVEQIEKNLKEEFGIRDIEIEPIKSAGGSAGGSAGG [r17_508_TrROS] :: mid-valued
